- TESTED_TARGET: Glutamate NMDA receptor (Rattus norvegicus) (UniProt P35439+Q00959+Q00960+Q00961+Q62645+Q8VHN2+Q9R1M7)
- METHOD_DESCRIPTION: Ratio of IC50 for displacement of [3H]-MK-801 from rat cortical membranes NMDA receptor in presence of 30 uM spermine to IC50 for displacement of [3H]-MK-801 from rat cortical membranes NMDA receptor in absence of 30 spermine
I'd be grateful if you could share measured Ratio IC50 for these entries.
# respond with the number and nothing more

Could you please provide reported Ratio IC50 for N=C(N)c1ccc(NCCNc2ccc(C(=N)N)cc2)cc1 ? Thanks! 30.2

Note Ratio IC50 for the compound shown: N=C(N)c1ccc(NC(=O)c2cccc(C(=O)Nc3ccc(C(=N)N)cc3)n2)cc1 1.22

Give Ratio IC50 for N=C(N)c1ccc(N2CCCN(c3ccc(C(=N)N)cc3)CC2)cc1 20.4

Please report Ratio IC50 for the following compound: CCN(CCNc1ccc(C(=N)N)cc1)c1ccc(C(=N)N)cc1 19.3

Name the recorded Ratio IC50 of the compound listed here: N=C(N)c1ccc(OCc2ccc(COc3ccc(C(=N)N)cc3)cc2)cc1 5.25

Answer with the recorded Ratio IC50 for the compound listed here: CN(CCCN(C)c1ccc(C(=N)N)cc1)c1ccc(C(=N)N)cc1 14.7

Hello, please tell me recorded Ratio IC50 for this one: NCCCCCCCCc1ccc(CCCCN)s1 15.1

Identify measured Ratio IC50 associated with C/N=C(\N)c1ccc(-c2ccc(-c3ccc(/C(N)=N/C)cc3)o2)cc1 3.47

Please look at this compound and report its Ratio IC50: N=C(N)c1ccc(-c2ccc(-c3nc4ccc(C(=N)N)cc4[nH]3)s2)cc1 4.14

Retrieve Ratio IC50 measured for N=C(N)c1ccc(OCc2cccc(COc3ccc(C(=N)N)cc3)c2)cc1 and print it. 9.04

Return Ratio IC50 for the following compound: N=C(N)c1ccc(-c2ccc(-c3ccc(C(=N)N)cc3)o2)cc1 [FURAMIDINE] 2.37

Answer with the recorded Ratio IC50 for the compound listed here: N=C(NC1CC1)c1ccc(N2CCN(c3ccc(C(=N)NC4CC4)cc3)CC2)cc1 21.8

Report Ratio IC50, nothing else, for this compound: N=C(N)c1ccc(-c2ccc(-c3ccc(C(=N)N)s3)s2)s1 1.5

Quote Ratio IC50 reported for CCCNC(=N)c1ccc(N2CCN(c3ccc(C(=N)NCCC)cc3)CC2)cc1 please. 21.8

Return value of Ratio IC50 for input N=C(N)c1ccc(NC(=O)CCCCCCCCC(=O)Nc2ccc(C(=N)N)cc2)cc1 , no commentary. 4.07

Identify the reported Ratio IC50 for the following entry. N=C(N)c1ccc(NCCCCCCNc2ccc(C(=N)N)cc2)cc1 5.26

Determine its reported Ratio IC50: N=C(N)c1ccc(NC(=O)c2cccc(C(=O)Nc3ccc(C(=N)N)cc3)c2)cc1 0.97

Check the records and state Ratio IC50 for N=C(N)c1ccc(NC(=O)CCCCC(=O)Nc2ccc(C(=N)N)cc2)cc1 3.46

Look up and report measured Ratio IC50 for this entry: N=C(N)c1ccc(NCCCCCCCCNc2ccc(C(=N)N)cc2)cc1 4.37

Read the entry c1cc(N2CCCN(c3ccc(C4=NCCCN4)cc3)CC2)ccc1C1=NCCCN1 and write its reported Ratio IC50. 11.7

Dear colleague, please send me the reported Ratio IC50 for N=C(NC1CC1)c1ccc(N2CCCN(c3ccc(C(=N)NC4CC4)cc3)CC2)cc1 when you can. 19.9

Fill in Ratio IC50 for record N=C(N)c1ccc(-c2ccc(-c3ccc(C(=N)N)cc3)c(F)c2)cc1 4.63
